Provenance of the data: patent US20250171486A1

Test: in vitro
Settings: chlorocebus sabaeus
parameter: CC50 at 2 days

Given the molecule CC(C)C(=O)ONc1ccn([C@@H]2O[C@H](CO)[C@@H](O)[C@H]2O)c(=O)n1 , write its reported CC50 at 2 days.
> 100 µM

----------
System: DENV-2 replicon BHK-21 (DENV2-BHK) cells
Assay: MTT cytotoxicity assay in DENV-2 replicon BHK-21 cells
Conditions: read-out: CC50, 50% cytotoxic concentration; BHK-21 cells, MTT
parameter: CC50

Solved entries:
CCOC(=O)CNc1ccn([C@@H]2O[C@H](CO)[C@@H](O)[C@H]2O)c(=O)n1	> 100 µM
NC(=O)c1ncn([C@@H]2O[C@H](CO)[C@@H](O)[C@H]2O)n1 [RBV, Ribavirin, reference compound]	5.46 µM
CCOC(=O)[C@H](Cc1ccccc1)Nc1ccn([C@@H]2O[C@H](CO)[C@@H](O)[C@H]2O)c(=O)n1	> 100 µM
CCOC(=O)[C@H](CC(C)C)Nc1ccn([C@@H]2O[C@H](CO)[C@@H](O)[C@H]2O)c(=O)n1	> 100 µM
CCOC(=O)[C@H](C)Nc1ccn([C@@H]2O[C@H](CO)[C@@H](O)[C@H]2O)c(=O)n1	> 100 µM

Then this molecule:
Given the molecule CC(C)C(=O)ONc1ccn([C@@H]2O[C@H](CO)[C@@H](O)[C@H]2O)c(=O)n1 , write its reported CC50.
10.8 µM

----------
Each record here notes measured CC50 at 3 days.
Test: in vitro
Conditions: dog

O=c1nc(NCCO)ccn1[C@@H]1O[C@H](CO)[C@@H](O)[C@H]1O	> 100 µM

Then this compound:
Given the compound O=c1nc(NO)ccn1[C@@H]1O[C@H](CO)C(O)[C@@H]1O (stereo partly drawn) [Compound 6, β-D-N^4-hydroxycytidine, reference compound] , write its reported CC50 at 3 days.
> 100 µM

----------
System: Influenza virus A/Hong Kong/8/68 (HK: H3N2)
Test: organism not typed
Format: cell-based
Details: MDCK, 72 h; read-out: Antiviral activity (EC50) Flu A H3N2 Hong Kong
Field 'label' (enum: met / not met). Set to met when EC50 is strictly under 6 µM; else not met.

O=c1nc(NCCO)ccn1[C@@H]1O[C@H](CO)[C@@H](O)[C@H]1O [Compound 5b]	not met
CC(C)C(=O)ONc1ccn([C@@H]2O[C@H](CO)[C@@H](O)[C@H]2O)c(=O)n1 [Compound 5a]	not met
NC(=O)c1nc(F)cnc1O [Compound T-705, 6-fluoro-3-hydroxy-2-pyrazinecarboxamide, reference compound]	not met

hey, is EC50 for O=c1nc(NO)ccn1[C@@H]1O[C@H](CO)C(O)[C@@H]1O (stereo partly drawn) [Compound 6, β-D-N^4-hydroxycytidine, reference compound] lower than 6 µM or not?
met

hey, is EC50 for NC12CC3CC(CC(C3)C1)C2 [AMT, Amantadine] lower than 6 µM or not?
not met

----------
Experiment: in vitro
Settings: African green monkey
Each record here notes measured CC50.

Solved entries:
CCC(CC)COC(=O)[C@H](C)N[P@](=O)(OC[C@H]1O[C@@](C#N)(c2ccc3c(N)ncnn23)[C@H](O)[C@@H]1O)Oc1ccccc1 [Remdesivir, reference compound]	> 100 µM
O=c1nc(NCCO)ccn1[C@@H]1O[C@H](CO)[C@@H](O)[C@H]1O	> 100 µM
CC(C)C(=O)OC[C@H]1O[C@@H](n2ccc(NO)nc2=O)[C@@H](O)C1O (some centres unmarked) [Compound 7, reference compound]	> 100 µM

Given the compound CC(C)C(=O)ONc1ccn([C@@H]2O[C@H](CO)[C@@H](O)[C@H]2O)c(=O)n1 , write its reported CC50.
> 100 µM

Given the compound O=c1nc(NO)ccn1[C@@H]1O[C@H](CO)C(O)[C@@H]1O (stereo partly drawn) [Compound 6, β-D-N^4-hydroxycytidine, reference compound] , write its reported CC50.
16.5 µM

----------
Assay: Cytotoxicity in mock-infected MDCK cells (MTT)
Conditions: dog, mock-infected MDCK cells
Each record here notes measured CC50 at 3 days.

Solved entries:
NC(=O)c1nc(F)cnc1O [Compound T-705, 6-fluoro-3-hydroxy-2-pyrazinecarboxamide, reference compound]	> 100 µM
CC(C)C(=O)OC[C@H]1O[C@@H](n2ccc(NO)nc2=O)[C@@H](O)C1O (stereo partly drawn) [Compound 7, reference compound]	> 100 µM

Then this compound:
Given the compound CC(C)C(=O)ONc1ccn([C@@H]2O[C@H](CO)[C@@H](O)[C@H]2O)c(=O)n1 , write its reported CC50 at 3 days.
> 100 µM

----------
Tested on: Influenza virus A/Puerto Rico/8/34 (PR8; H1N1)
Experiment: organism not typed
Type: cell-based
Settings: MDCK, 72 h; read-out: Antiviral activity (EC50) Flu A H1N1 PR8
Each record here notes measured EC50.
The reply should contain only the number, in µM.

NC(=O)c1nc(F)cnc1O [Compound T-705, 6-fluoro-3-hydroxy-2-pyrazinecarboxamide, reference compound]	3.2

Given the compound CC(C)C(=O)ONc1ccn([C@@H]2O[C@H](CO)[C@@H](O)[C@H]2O)c(=O)n1 , write its reported EC50.
5.8

Given the compound O=c1nc(NO)ccn1[C@@H]1O[C@H](CO)C(O)[C@@H]1O (stereo partly drawn) [Compound 6, β-D-N^4-hydroxycytidine, reference compound] , write its reported EC50.
1.7

Given the compound CC(C)C(=O)OC[C@H]1O[C@@H](n2ccc(NO)nc2=O)[C@@H](O)C1O (stereo partly drawn) [Compound 7, reference compound] , write its reported EC50.
6.6

----------
Test: in vitro
Conditions: dog
parameter: CC50

Given the molecule NC12CC3CC(CC(C3)C1)C2 [AMT, Amantadine] , write its reported CC50.
> 100 µM
